testedSystem: STK3 (human)
protocolDescription: KINOMEscan competition binding
testConditions: compound 10.0 µM
reportedEndpoint: kinase still bound, per cent of control
Reply with the number and its unit after it.

Some molecules with recorded kinase still bound, per cent of control:
- molecule: "O=c1[nH]c2ccccc2n1C1CCN(Cc2ccc(-c3nc4cc5[nH]cnc5cc4nc3-c3ccccc3)cc2)CC1"
  kinase still bound, per cent of control: "100%"
- molecule: "N#C/C(=C1/Nc2ccccc2S1)c1ccnc(NCCc2cccnc2)n1"
  kinase still bound, per cent of control: "59%"
- molecule: "COc1cc2c(Nc3ccc(NC(=O)c4ccccc4)cc3)ncnc2cc1OCCCN1CCOCC1"
  kinase still bound, per cent of control: "100%"
- molecule: "CNC(=O)Nc1ccc(-c2nc(N3CC4CCC(C3)O4)c3cnn(C4CCC5(CC4)OCCO5)c3n2)cc1"
  kinase still bound, per cent of control: "97%"
- molecule: "CCOc1cc(N2CCC(O)CC2)ccc1Nc1ncc2c(n1)N(C)c1ccccc1C(=O)N2C"
  kinase still bound, per cent of control: "100%"

Req: Provide kinase still bound, per cent of control value for the following molecule: CCc1nc(-c2cccc(C)c2)c(-c2ccnc(NC(=O)c3ccccc3)c2)s1
Resp: 97%

Req: Provide kinase still bound, per cent of control value for the following molecule: COc1cc(N2CCC(C(N)=O)CC2)ccc1Nc1nc(N)c(Cl)c(Nc2ccccc2S(=O)(=O)C(C)C)n1
Resp: 100%

Req: Provide kinase still bound, per cent of control value for the following molecule: COc1cc(C)c(Sc2cnc(NC(=O)c3ccc(CNC(C)C(C)C)cc3)s2)cc1C(=O)N1CCN(C(C)=O)CC1 (stereo not given)
Resp: 100%

Req: Provide kinase still bound, per cent of control value for the following molecule: COc1cc2ncnc(Nc3cccc(Cl)c3)c2cc1OC
Resp: 91%

Req: Provide kinase still bound, per cent of control value for the following molecule: CCCS(=O)(=O)Nc1ccc(F)c(C(=O)c2c[nH]c3ncc(Cl)cc23)c1F
Resp: 21%

These measurements were taken from the kinase profiling compilation of Christmann-Franck et al. (2016).
